Assay: Binding affinity to recombinant drug-resistant Leishmania donovani LdDR50 topoisomerase 1b after 24 hrs by equilibrium dialysis method
OBSERVATION TYPE: pKd
Field pKd (float): negative decimal logarithm of the concentration in molar.

### Prompt For "c1ccc2c(Cc3c[nH]c4ccccc34)c[nH]c2c1" , what is its reported pKd?
### Response 3.62

###

Assay: Binding affinity to recombinant drug-resistant Leishmania donovani LdDR50 topoisomerase 1b large subunit F270L, K430N mutant and small subunit N184S mutant after 24 hrs by equilibrium dialysis method
OBSERVATION TYPE: Kd (µM)
Report as a plain number; the unit µM is understood.

### Prompt Name the reported Kd value associated with the compound c1ccc2c(Cc3c[nH]c4ccccc34)c[nH]c2c1 [ARUNDINE]
### Response 240

###

Assay: Binding affinity to Leishmania donovani small subunit of topoisomerase 1b
OBSERVATION TYPE: Kd (nM)
Supply the numeric figure in nM, leaving out any unit text.

### Prompt Quick check: Kd of "c1ccc2c(Cc3c[nH]c4ccccc34)c[nH]c2c1" ?
### Response 50

###

Assay: Binding affinity to Leishmania donovani large subunit of topoisomerase 1b
OBSERVATION TYPE: pKd
In simple prose, pKd is minus the logarithm base ten of a concentration in moles per litre.

### Prompt Returns the measured pKd for the input compound. Input: "c1ccc2c(Cc3c[nH]c4ccccc34)c[nH]c2c1"
### Response 6.37
